Test System: PKCα (Homo sapiens, UniProt P17252)
Construct: purchased Eurofins Pharma Discovery Services (KinaseProfiler; Cerep BioPrint panel)
Assay Notes: kinase selectivity panel
Assay type: biochemical
Test Settings: read-out: percentage of control activity (POC), PKCα
Observation Type: remaining activity at 10 µM (%)
Write the number in % without appending the unit.

Check out these entries, answers already filled in.
Cc1ccc(C(=O)NCC2CC2)cc1-c1ccc2c(c1)NC(=O)C21CCCC1 ... 95
Cn1cc(-c2cccc(-c3nc(C(=O)NC4C5CC6CC4CC(O)(C6)C5)c(N)nc3N)c2)cn1 (centres unmarked) ... 85
CC(C)(C)N1CCC(c2cc(-c3ccc(F)cc3Cl)c3cc[n+]([O-])c(-c4c(Cl)cccc4Cl)c3n2)CC1 ... 106
CS(=O)(=O)N1CCN(c2ccc(Nc3ncc(C(N)=O)c(NC4CC4)n3)cc2)CC1 ... 38

We now examine a further compound.
What value of remaining activity at 10 µM has been recorded for this entry: COc1c(NC(=O)c2ccc(C)c(-c3nnc4c(NCC(C)(C)C)nccn34)c2)cc(C(C)(C)C)cc1NS(C)(=O)=O [compound 7, reference compound] 102
